Attribution: ChEMBL document CHEMBL1240414

Test system: Rattus norvegicus
assay: Neurotoxicity in Kunming rat assessed as minimum motor impairment at 30 mg/kg, po after 0.5 hrs by rotarod test
Assay type: functional, organism-based
Design: dose 30 mg/kg
parameter: Activity

compound	assaySystem	parameter	experimentalValue
COc1ccc(C2CC23NC(=O)N(C)C3=O)c(OC)c1OC (stereo unspecified)	Rattus norvegicus	Activity	Not toxic
COc1cccc(C2CC23NC(=O)N(C)C3=O)c1OC (stereo unspecified)	Rattus norvegicus	Activity	Not toxic
CCCCC1CC12NC(=O)N(C)C2=O (stereo unspecified)	Rattus norvegicus	Activity	Not toxic
CN1C(=O)NC2(CC2c2ccc(S(C)(=O)=O)cc2)C1=O (stereo unspecified)	Rattus norvegicus	Activity	Not toxic
CN1C(=O)NC2(CC2c2ccc(F)cc2)C1=O (stereo unspecified)	Rattus norvegicus	Activity	Not toxic

Then there is this compound:
Request: // map CN1C(=O)NC2(CC2c2ccccc2)C1=O (stereo unspecified) to recorded Activity (system: Rattus norvegicus)
Result: Not toxic
